biological target: human polyclonal IgG (Gammanorm) (human); test: SPR (Biacore), ligand amine-coupled to CM5 chip, 1 mg/ml IgG flowed; IgG binding signal left after 96 cycles of 100 mM NaOH, 10 min
So basically, the class depends on measured Retained capacity after 96 cycles (%), and the ranges are bucket A (below 30%), bucket B (30% to below 40%), bucket C (40% or more)

{"binder": "D3(Q19E)1 (designed binder) PKEEVTIKANLIYADGKTETAEFKGTFEEATAEAYRYADLLAKENGKYTVDVADKGYTLNIKFAGKEKTPEE", "discrete-label": "bucket B"}
{"binder": "Domain 1 (D1) (protein) AQVSEEEVTIKANLIFANGSTQTAEFKGTFEKATSEAYAYADTLKKDNGEYTVDVADKGYTLNIKFAGKEKTPEEC", "discrete-label": "bucket A"}
{"binder": "Protein L (protein) AIHNRAKEETPETPETDSEEEVTIKANLIFANGSTQTAEFKGTFEKATSEAYAYADTLKKDNGEYTVDVADKGYTLNIKFAGKEKTPEEPKEEVTIKANLIYADGKTQTAEFKGTFEEATAEAYRYADALKKDNGEYTVDVADKGYTLNIKFAGKEKTPEEPKEEVTIKANLIYADGKTQTAEFKGTFEEATAEAYRYADLLAKENGKYTVDVADKGYTLNIKFAGKEKTPEEPKEEVTIKANLIYADGKTQTAEFKGTFAEATAEAYRYADLLAKENGKYTADLEDGGYTINIRFAGKKVDEKPEE", "discrete-label": "bucket A"}

In: Please indicate the class for Domain 3 (D3) (protein) AQVPKEEVTIKANLIYADGKTQTAEFKGTFEEATAEAYRYADLLAKENGKYTVDVADKGYTLNIKFAGKEKTPEEC based on its Retained capacity after 96 cycles (%).
Out: bucket B

In: Try Domain 3 tetramer (designed binder) PKEEVTIKANLIYADGKTQTAEFKGTFEEATAEAYRYADLLAKENGKYTVDVADKGYTLNIKFAGKEKTPEEPKEEVTIKANLIYADGKTQTAEFKGTFEEATAEAYRYADLLAKENGKYTVDVADKGYTLNIKFAGKEKTPEEPKEEVTIKANLIYADGKTQTAEFKGTFEEATAEAYRYADLLAKENGKYTVDVADKGYTLNIKFAGKEKTPEEPKEEVTIKANLIYADGKTQTAEFKGTFEEATAEAYRYADLLAKENGKYTVDVADKGYTLNIKFAGKEKTPEE next.
Out: bucket B

In: What would you report for Domain 4 (D4) (protein) AQVPKEEVTIKANLIYADGKTQTAEFKGTFAEATAEAYRYADLLAKENGKYTADLEDGGYTINIRFAGKKVDEKPEEC ?
Out: bucket A

In: D3(N45A, N60Q)1 (designed binder) PKEEVTIKANLIYADGKTQTAEFKGTFEEATAEAYRYADLLAKEAGKYTVDVADKGYTLQIKFAGKEKTPEE ?
Out: bucket C

Numbers sourced from patent US20170320919A1.
